System Name: NOX5 (Homo sapiens)
Sequence (Q96PH1 1-765): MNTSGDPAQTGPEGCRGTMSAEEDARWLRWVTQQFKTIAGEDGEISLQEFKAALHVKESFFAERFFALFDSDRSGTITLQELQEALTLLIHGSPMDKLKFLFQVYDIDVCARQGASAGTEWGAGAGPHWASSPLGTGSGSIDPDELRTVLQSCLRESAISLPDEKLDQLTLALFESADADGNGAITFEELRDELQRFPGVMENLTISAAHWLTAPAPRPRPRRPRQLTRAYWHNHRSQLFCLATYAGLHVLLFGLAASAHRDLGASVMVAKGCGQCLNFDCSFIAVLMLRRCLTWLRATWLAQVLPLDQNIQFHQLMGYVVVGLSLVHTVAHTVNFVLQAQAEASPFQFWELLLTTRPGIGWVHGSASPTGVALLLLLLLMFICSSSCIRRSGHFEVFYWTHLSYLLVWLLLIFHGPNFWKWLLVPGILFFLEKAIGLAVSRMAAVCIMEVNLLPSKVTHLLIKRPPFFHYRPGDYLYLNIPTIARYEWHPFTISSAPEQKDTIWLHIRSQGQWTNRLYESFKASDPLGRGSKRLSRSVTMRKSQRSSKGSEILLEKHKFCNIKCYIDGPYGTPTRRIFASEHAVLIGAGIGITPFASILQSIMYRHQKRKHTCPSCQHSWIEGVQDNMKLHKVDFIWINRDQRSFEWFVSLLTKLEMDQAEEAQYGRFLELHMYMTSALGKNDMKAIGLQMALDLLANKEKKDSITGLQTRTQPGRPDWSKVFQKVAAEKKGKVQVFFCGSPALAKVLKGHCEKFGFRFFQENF
Experiment: NOX5-dependent ROS production, luminescence assay for O2.- in UACC257 melanoma cells
Type: cell-based
Measurement Parameters: IC50 ± SE, NOX5 UACC-257, 3-5 independent experiments; exposure for 30 min
pIC50: −log10 of the molar value.
Quantity Kind: pIC50

>>> test_value("O=[N+]([O-])c1cccc2c1-c1c(cccc1[N+](=O)[O-])[I+]2.[Br-] [Compound 49, 1,9-dinitrodibenzo[b,d]iodolium bromide]")
6.64

----------
System Name: NOX4 (Homo sapiens)
Construct: expressed in transfected cells; host or cells: HEK293
Experiment: NOX4-dependent H2O2 production, Amplex Red assay in reconstituted HEK293 cells
Format: cell-based
Measurement Parameters: IC50 ± SE, NOX4 HEK293, 3-5 independent experiments; exposure for 30 min
pIC50: −log10 of the molar value.
Quantity Kind: pIC50

>>> test_value("O=[N+]([O-])c1cccc2c1-c1c(cccc1[N+](=O)[O-])[I+]2.[Br-] [Compound 49, 1,9-dinitrodibenzo[b,d]iodolium bromide]")
5.26

----------
Listed next: entries and their corresponding log10 of IC50.
System Name: NOX4 (Homo sapiens, UniProt Q9NPH5)
Construct: expressed in transfected cells; host or cells: HEK293
Experiment: NOX4-dependent H2O2 production, Amplex Red assay in reconstituted HEK293 cells
Assay type: cell-based
Measurement Parameters: 3-5 independent experiments; exposure for 30 min; read-out: IC50 ± SE, NOX4 HEK293
Quantity Kind: log10 of IC50 (log10 of the value in µM)

>>> test_value("COC(=O)c1ccc2c(c1)[I+]c1ccccc1-2.Cc1ccc(S(=O)(=O)[O-])cc1 [Compound 21]")
-0.90
>>> test_value("[Cl-].c1csc([I+]c2cccs2)c1 [Compound 1, di-2-thienyliodonium chloride, reference compound]")
1.51
>>> test_value("CN(C)Cc1ccc2c(c1)[I+]c1cc(CN(C)C)ccc1-2.[I-] [Compound 24]")
1.55
>>> test_value("O=[N+]([O-])c1ccc2c(c1)[I+]c1cc([N+](=O)[O-])ccc1-2.[Br-] [Compound 15, Dibenziodolium, 3,7-dinitro-, bromide]")
-0.86
>>> test_value("O=S(=O)([O-])C(F)(F)F.c1csc([I+]c2cccs2)c1 [Compound 3, di-2-thienyliodonium triflate]")
1.47
>>> test_value("Brc1ccc2c(c1)[I+]c1cc(Br)ccc1-2.[Br-] [Compound 16, Dibenziodolium, 3,7-dibromo-, bromide]")
-0.79

----------
System Name: NOX2 (Homo sapiens, UniProt P04839)
Construct: fully differentiated HL-60 cells expressing active NOX2; endogenous in cells; host or cells: differentiated HL-60
Experiment: NOX2-dependent ROS production, luminescence assay for O2.- in differentiated HL-60 cells
Type: cell-based
Measurement Parameters: exposure for 30 min
Quantity Kind: IC50 toward NOX2

>>> test_value("COC(=O)c1ccc2c(c1)[I+]c1ccccc1-2.Cc1ccc(S(=O)(=O)[O-])cc1")
"low nM"
>>> test_value("O=[N+]([O-])c1ccc2c(c1)[I+]c1cc([N+](=O)[O-])ccc1-2.[Br-] [Compound 15, Dibenziodolium, 3,7-dinitro-, bromide]")
"low nM"
>>> test_value("Brc1ccc2c(c1)[I+]c1cc(Br)ccc1-2.[Br-] [Compound 16, Dibenziodolium, 3,7-dibromo-, bromide]")
"low nM"

----------
System Name: NOX1/A1/O1 (Homo sapiens)
Construct: expressed in transfected cells; host or cells: HEK293
Experiment: NOX1-dependent ROS production, luminescence assay for O2.- in HEK293 cells expressing the NOX1 complex
Type: cell-based
Measurement Parameters: exposure for 30 min
Quantity Kind: IC50 toward NOX1

>>> test_value("COC(=O)c1ccc2c(c1)[I+]c1ccccc1-2.Cc1ccc(S(=O)(=O)[O-])cc1")
"low nM"
>>> test_value("O=[N+]([O-])c1ccc2c(c1)[I+]c1cc([N+](=O)[O-])ccc1-2.[Br-] [Compound 15, Dibenziodolium, 3,7-dinitro-, bromide]")
"low nM"
>>> test_value("Brc1ccc2c(c1)[I+]c1cc(Br)ccc1-2.[Br-] [Compound 16, Dibenziodolium, 3,7-dibromo-, bromide]")
"low nM"

----------
System Name: NOX5 (Homo sapiens, UniProt Q96PH1)
Experiment: NOX5-dependent ROS production, luminescence assay for O2.- in UACC257 melanoma cells
Format: cell-based
Measurement Parameters: exposure for 30 min
Quantity Kind: IC50 toward NOX5

>>> test_value("Brc1ccc2c(c1)[I+]c1cc(Br)ccc1-2.[Br-] [Compound 16, Dibenziodolium, 3,7-dibromo-, bromide]")
"low nM"
>>> test_value("COC(=O)c1ccc2c(c1)[I+]c1ccccc1-2.Cc1ccc(S(=O)(=O)[O-])cc1")
"low nM"
>>> test_value("O=[N+]([O-])c1ccc2c(c1)[I+]c1cc([N+](=O)[O-])ccc1-2.[Br-] [Compound 15, Dibenziodolium, 3,7-dinitro-, bromide]")
"low nM"

----------
System Name: NOX4 (Homo sapiens, UniProt Q9NPH5)
Construct: expressed in transfected cells; host or cells: HEK293
Sequence (Q9NPH5 1-578): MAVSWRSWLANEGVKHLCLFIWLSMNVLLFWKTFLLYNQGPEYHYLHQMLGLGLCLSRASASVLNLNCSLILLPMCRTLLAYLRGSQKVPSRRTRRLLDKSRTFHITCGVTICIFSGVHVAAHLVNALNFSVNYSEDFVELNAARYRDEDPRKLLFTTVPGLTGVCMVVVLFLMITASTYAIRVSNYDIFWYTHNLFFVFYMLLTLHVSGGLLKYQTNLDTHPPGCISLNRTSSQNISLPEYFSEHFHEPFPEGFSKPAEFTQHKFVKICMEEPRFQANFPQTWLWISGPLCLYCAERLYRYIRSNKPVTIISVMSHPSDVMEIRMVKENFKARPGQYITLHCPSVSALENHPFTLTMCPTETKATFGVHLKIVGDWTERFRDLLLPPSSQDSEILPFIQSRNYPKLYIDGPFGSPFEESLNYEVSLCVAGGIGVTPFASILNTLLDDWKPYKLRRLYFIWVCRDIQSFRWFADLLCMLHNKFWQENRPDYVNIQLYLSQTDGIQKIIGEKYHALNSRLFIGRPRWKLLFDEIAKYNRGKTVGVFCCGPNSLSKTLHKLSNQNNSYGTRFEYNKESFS
Sequence (P13498 2-195 partner limits assumed): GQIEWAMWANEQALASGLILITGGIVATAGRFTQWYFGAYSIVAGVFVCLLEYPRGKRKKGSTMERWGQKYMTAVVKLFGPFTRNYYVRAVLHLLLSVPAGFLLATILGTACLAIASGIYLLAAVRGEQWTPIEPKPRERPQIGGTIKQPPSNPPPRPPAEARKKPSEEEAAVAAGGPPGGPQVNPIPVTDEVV
Experiment: NOX4-dependent H2O2 production, Amplex Red assay in reconstituted HEK293 cells
Assay type: cell-based
Measurement Parameters: exposure for 30 min
Quantity Kind: IC50 toward NOX4

>>> test_value("COC(=O)c1ccc2c(c1)[I+]c1ccccc1-2.Cc1ccc(S(=O)(=O)[O-])cc1")
"low nM"
>>> test_value("Brc1ccc2c(c1)[I+]c1cc(Br)ccc1-2.[Br-] [Compound 16, Dibenziodolium, 3,7-dibromo-, bromide]")
"low nM"
>>> test_value("O=[N+]([O-])c1ccc2c(c1)[I+]c1cc([N+](=O)[O-])ccc1-2.[Br-] [Compound 15, Dibenziodolium, 3,7-dinitro-, bromide]")
"low nM"
